test system: SF-539; experiment: NCI tumour cell line growth inhibition, 48 h
Activity calls are given as the source filed them. Cut-off read from the data, not from the text of the source: active = GI50 up to about 1.1 µM and inactive = higher.
Select the matching outcome among active, inactive

Prompt: Which outcome was assigned to CCOc1c2ccsc2c(OCC)c2ccsc12 in this test?
Response: inactive

Prompt: Which outcome was assigned to C=CC[C@H]1[C@@H](O[Si](C)(C)C(C)(C)C)[C@H](n2ccc(=O)[nH]c2=O)O[C@@H]1CO[Si](C)(C)C(C)(C)C in this test?
Response: inactive

Prompt: Which outcome was assigned to Clc1ccccc1C(SCc1ccccc1)SCc1ccccc1 in this test?
Response: inactive

Prompt: Which outcome was assigned to O=c1c(-c2ccc3c(c2)OCO3)coc2c3c(ccc12)OCO3 in this test?
Response: inactive

Prompt: Which outcome was assigned to Cc1cc(C)c2c(=O)n(CC(O)CN(Cc3ccccc3)CC(O)Cn3sc4nc(C)cc(C)c4c3=O)sc2n1 (centres undefined) in this test?
Response: inactive

Prompt: Which outcome was assigned to Cn1c(N)nc(-c2ccc(Cl)cc2)c1SSc1c(-c2ccc(Cl)cc2)nc(N)n1C in this test?
Response: inactive

Prompt: Which outcome was assigned to CCOC(=O)C(=O)NC12CC3CC(CC(C3)C1)C2 in this test?
Response: inactive

Prompt: Which outcome was assigned to CC(NNC(=O)c1ccncc1)c1ccc(Cl)cc1Cl (centres undefined) in this test?
Response: inactive

Prompt: Which outcome was assigned to CCOC(=O)CC[C@@H](NC(=O)c1ccc(N[C@@H]2c3cc4c(cc3C(c3cc(OC)c(O)c(OC)c3)C3C(=O)OC[C@@H]32)OCO4)cc1)C(=O)OCC (some centres undefined) in this test?
Response: active

----------
test system: IGROV-1; assay: NCI tumour cell line growth inhibition, 48 h
The source made the active and inactive calls. Cut-off read from the data, not from the text of the source: active = GI50 up to about 1.1 µM and inactive = higher.
MEASURE: GI50

Prompt: Consider the compound C=C(C)CNCC(=C)C.Oc1c(Cl)c(Cl)c(Cl)c(Cl)c1Cl . State its measured GI50.
Response: 22.1 µM (inactive)

Prompt: Consider the compound CCOC(=O)/C=C(\C(=O)OCC)n1ccc(=O)n(Cc2cnnn2COCCOC(C)=O)c1=O . State its measured GI50.
Response: 16.8 µM (inactive)

Prompt: Consider the compound CC(=O)OC1(Sc2ccccc2)CC2[C@H]3COC(C)(C)O[C@H]3CC[C@@]2(C)CC1=O (stereo partly specified) . State its measured GI50.
Response: 21.3 µM (inactive)

Prompt: Consider the compound C[n+]1[se]c2ccccc2c1Cl . State its measured GI50.
Response: 31 µM (inactive)

Prompt: Consider the compound CC(C)(C)c1cc(C(O)(C(=O)O)C(=O)O)cc(C(C)(C)C)c1O . State its measured GI50.
Response: > 100 µM (inactive)

Prompt: Consider the compound C=CC1(c2ccccc2Cl)N/C(=C/OCC)CO1 (stereo unspecified) . State its measured GI50.
Response: > 100 µM (inactive)

----------
Please provide measured GI50 for the entries that follow.
system: HOP-62; assay: NCI tumour cell line growth inhibition, 48 h
Calls of active or inactive are those of the source. Cut-off read from the data, not from the text of the source: active = GI50 up to about 1.1 µM and inactive = higher.

Prompt: Consider the compound Cc1ccc(NC(=O)/C(=N/NC(=O)CC#N)C2C(=O)N(c3ccccc3)N=C2N)cc1C (stereo not given) . State its measured GI50.
Response: > 100 µM (inactive)

Prompt: Consider the compound CSCC1CC(c2ccc(Cl)cc2)=NO1 (stereo not given) . State its measured GI50.
Response: > 100 µM (inactive)

Prompt: Consider the compound COC(=O)C(=O)OC1(C(C)=O)CC2(c3ccccc3)OC1(c1ccccc1)c1ccccc12 (stereo not given) . State its measured GI50.
Response: 18.4 µM (inactive)

Prompt: Consider the compound CC(C)(C)OC(=O)NC1CC=CCC1NC(=O)OC(C)(C)C (stereo not given) . State its measured GI50.
Response: > 100 µM (inactive)

Prompt: Consider the compound CC(C)C1(O)C(c2ccccc2)=C(c2ccccc2)C(c2ccccc2)=C1c1ccccc1 . State its measured GI50.
Response: 12.1 µM (inactive)

Prompt: Consider the compound O=C(/C=C/c1ccc(O)cc1)NCCc1ccc(O)cc1 . State its measured GI50.
Response: > 12.5 µM (inactive)

Prompt: Consider the compound C=C(Cl)Cc1c(O)c2c(c(O)c1CC(=C)Cl)C(=O)c1ccccc1C2=O . State its measured GI50.
Response: > 100 µM (inactive)

Prompt: Consider the compound CCOC(=O)CC[C@@H](NC(=O)c1ccc(N[C@@H]2c3cc4c(cc3C(c3cc(OC)c(O)c(OC)c3)C3C(=O)OC[C@@H]32)OCO4)cc1)C(=O)OCC (stereo not given in full) . State its measured GI50.
Response: 0.0127 µM (active)

Prompt: Consider the compound CC12CCC(=O)[C@@]1(C)CCCC2O (stereo not given in full) . State its measured GI50.
Response: > 100 µM (inactive)

Prompt: Consider the compound COc1ccc2c(c1)/C(=C\c1c(C)nc3n1CCS3)C(=O)N2 . State its measured GI50.
Response: 32.3 µM (inactive)

Prompt: Consider the compound COc1cc2oc(-c3ccc(O)cc3)c(OC3OC(C)C(O)C(O)C3O)c(=O)c2c(O)c1OC (stereo not given) . State its measured GI50.
Response: > 100 µM (inactive)

Prompt: Consider the compound O=C1NC(=O)C(CCC(=O)c2ccc3ccccc3c2)C(=O)N1 . State its measured GI50.
Response: > 100 µM (inactive)

Prompt: Consider the compound CCOc1ccc(/N=N/c2ccc3cc(/C(C)=N/NC(=O)/C(C#N)=C\c4ccc(N(CCC#N)CCC#N)cc4)c(=O)oc3c2)cc1 . State its measured GI50.
Response: > 10 µM (inactive)

Prompt: Consider the compound O=c1c(-c2ccc3c(c2)OCO3)coc2c3c(ccc12)OCO3 . State its measured GI50.
Response: 20.1 µM (inactive)

Prompt: Consider the compound CC1(C)CN=C(Nc2ccc(F)cc2)S1 . State its measured GI50.
Response: > 100 µM (inactive)

Prompt: Consider the compound COC(=O)c1c2c(cc3c1CC1(C3)Cc3ccc4c(c3C1=O)CCC4)CCC2 (stereo not given) . State its measured GI50.
Response: 3.25 µM (inactive)

Prompt: Consider the compound Cc1cc(C)c2c(=O)n(CC(O)CN(Cc3ccccc3)CC(O)Cn3sc4nc(C)cc(C)c4c3=O)sc2n1 (stereo not given) . State its measured GI50.
Response: 14.4 µM (inactive)

Prompt: Consider the compound c1cc2c3c(c1)[C@@H]1O[C@@H]1c1cccc(c1-3)[C@@H]1O[C@H]21 . State its measured GI50.
Response: 27.7 µM (inactive)

Prompt: Consider the compound Cc1ccc(S(=O)(=O)NC(=O)OC23COCN2COC3)cc1 . State its measured GI50.
Response: > 100 µM (inactive)

Prompt: Consider the compound O=S1(=O)OCCOS(=O)(=O)C1(F)Cc1ccccc1 . State its measured GI50.
Response: > 100 µM (inactive)

----------
test system: MDA-N; experiment: NCI tumour cell line growth inhibition, 48 h
Active and inactive are the calls of the source. Rule as the data show it: active = GI50 up to about 1.1 µM and inactive = higher.
MEASURE: GI50

Prompt: Consider the compound O=C(O)c1ccc(C(=O)O)c2c(C(=O)O)ccc(C(=O)O)c12 . State its measured GI50.
Response: > 100 µM (inactive)

Prompt: Consider the compound CCn1c(=N)sc2nc3ccccc3n2c1=O . State its measured GI50.
Response: > 100 µM (inactive)

Prompt: Consider the compound O=C(NCC(C(=O)OCc1ccccc1)C(=O)OCc1ccccc1)OCc1ccccc1 . State its measured GI50.
Response: > 100 µM (inactive)

Prompt: Consider the compound CN(C)c1nc(N(C)C)nc(N(C)C23CC4CC(CC(C4)C2)C3)n1 . State its measured GI50.
Response: 21 µM (inactive)

Prompt: Consider the compound CC1=C2C(=O)c3ccccc3C(=O)[C@H]2C[C@@H](N2CCCC2=O)O1 . State its measured GI50.
Response: 16.4 µM (inactive)

Prompt: Consider the compound COc1cc(C(N)=O)cc(NC(=O)/C=C/c2ccccc2)c1OC . State its measured GI50.
Response: > 100 µM (inactive)

----------
test system: K562; test: NCI tumour cell line growth inhibition, 48 h
Calls of active or inactive are those of the source. Rule as the data show it: active = GI50 up to about 1.1 µM and inactive = higher.
Select the matching outcome among y (active), n (inactive)

Prompt: Which outcome was assigned to S=C(NCCc1ccccn1)c1nc[nH]c1C(=S)NCCc1ccccn1 in this test?
Response: n

Prompt: Which outcome was assigned to N=C1OC(CN2CCN(c3ccccc3)CC2)CN1C(=O)Nc1ccccc1 (stereo not given) in this test?
Response: n

Prompt: Which outcome was assigned to Cn1c2ccccc2n2c3ccccc3c3nnc(N)c-3c12 in this test?
Response: n

Prompt: Which outcome was assigned to O=C1Nc2ccccc2C1(O)C/C(=N/O)c1ccc2ccccc2c1 (stereo not given) in this test?
Response: n

Prompt: Which outcome was assigned to COc1ccc(C2(CC(C)C)CCNC2)cc1OC (stereo not given) in this test?
Response: n

Prompt: Which outcome was assigned to CC1NC(/C(=C/c2ccccc2O)NC(=O)c2ccccc2)OC1=O (stereo not given) in this test?
Response: n

Prompt: Which outcome was assigned to Cc1ccc(C(=O)Cc2nc3c([nH]c2=O)c(C)nn3-c2ccccc2)c(C)c1 in this test?
Response: n

Prompt: Which outcome was assigned to O=C(NC(=O)c1ccccc1[N+](=O)[O-])Nc1ccc(Oc2ncc(Cl)cn2)c(C(F)(F)F)c1 in this test?
Response: y

Prompt: Which outcome was assigned to N/N=C(\C(=O)Nc1c(Cl)cc([N+](=O)[O-])cc1Cl)C(c1cnc2ccc([N+](=O)[O-])cc2n1)[N+](=O)[O-] (stereo not given) in this test?
Response: n

Prompt: Which outcome was assigned to CC(C)C1=C(O)C(=O)C2=C(C1=O)C(O)CC1C(C)(C)CCCC21C (stereo not given) in this test?
Response: n

Prompt: Which outcome was assigned to CC(C)(C)OC(=O)N1CC(O)O[C@H](c2ccccc2)[C@@H]1c1ccccc1 (stereo not given in full) in this test?
Response: n

Prompt: Which outcome was assigned to CSc1ncc2c(n1)-c1ccccc1OC2NC(C)(C)C (stereo not given) in this test?
Response: n

Prompt: Which outcome was assigned to O=C(CC(=O)C(F)(F)F)c1csc2ccccc12 in this test?
Response: n

Prompt: Which outcome was assigned to COc1ccccc1N1C(=O)/C(=C/c2ccc(N(CCC#N)CCC#N)cc2C)N=C1c1cc([N+](=O)[O-])ccc1Cl in this test?
Response: n

Prompt: Which outcome was assigned to O=C(CC/C=C(/CS(=O)(=O)c1ccccc1)S(=O)(=O)c1ccccc1)c1ccccc1 in this test?
Response: n

Prompt: Which outcome was assigned to C=C(CS(=O)(=O)c1ccccc1)[P+](c1ccccc1)(c1ccccc1)c1ccccc1 in this test?
Response: n

Prompt: Which outcome was assigned to CCOP(=O)(OCC)OC1CC(n2cc(C)c(=O)n(C)c2=O)OC1CO[Si](C)(C)C(C)(C)C (stereo not given) in this test?
Response: n

Prompt: Which outcome was assigned to COc1cc(NS(C)(=O)=O)ccc1Nc1ccnc2ccc3[nH]ccc3c12 in this test?
Response: n

Prompt: Which outcome was assigned to Cc1cc(C)c2c(=O)n(CC(O)CN(Cc3ccccc3)CC(O)Cn3sc4nc(C)cc(C)c4c3=O)sc2n1 (stereo not given) in this test?
Response: n

Prompt: Which outcome was assigned to O=C1c2c(ccc3c2CCC3)CC1Cc1ccc2c(c1)CCC2 (stereo not given) in this test?
Response: n
